Compiled notes: published IC50 values involving Ubiquitin carboxyl-terminal hydrolase 7 (Homo sapiens).

compound=O=C([C@H]1Cc2cc(Cl)cc(-c3ccnc4cc(CO)sc34)c2O1)N1CCn2cnnc2C1 data_value="1 to 10 µM"
compound="Cc1cc(Cl)cc(-c2ccnc3cc([C@H](C)N4C(=O)C5CC5C4=O)sc23)c1C[C@@H]1CNCC(C)(C)O1 (stereo partly drawn)" data_value="< 0.01 µM"
compound="CCC(O)c1cc2nccc(-c3cc(Cl)cc4c3O[C@@H](c3nn(C)c5c3CNCC5)C4)c2s1 (stereo partly drawn)" data_value="< 1 µM"
compound="Cc1cnccc1-c1cc(Cl)cc2c1OC(C(=O)N1CCNCC1)C2 (stereo not drawn)" data_value="10 to 30 µM"
compound="OCC1Cc2nccc(-c3cc(Cl)cc4c3O[C@@H](c3onc5c3CNCC5)C4)c2O1 (stereo partly drawn)" data_value="10 to 30 µM"

# return recorded IC50 for input "O=C1c2ccccc2-c2nc3nnc(Cc4ccccc4)n3nc21"
3.3 µM

Recall and state the measured IC50 for O=C(C1Cc2cc(Cl)cc(-c3ccnc4c3CCC4)c2O1)N1CCNCC1 (stereo not drawn) .
< 1 µM

Supply reported IC50 belonging to this compound: "O=C([C@H]1Cc2cc(Cl)cc(-c3ccnc4c3CCC4)c2O1)N1CCNCC1"
< 1 µM

Please list IC50 recorded for the compound "CC[C@H](O)c1cc2nccc(-c3cc(Cl)cc4c3O[C@@](C)(c3onc5c3CNCC5)C4)c2s1"
< 1 µM

Input O=C1CCC(=O)N1Cc1cc2ncnc(-c3cc(Cl)cc(Cl)c3CC3CNCCO3)c2s1 (stereo not drawn) , output reported IC50.
< 0.01 µM

Look up and report measured IC50 for this entry: "Cn1nccc1-c1n[nH]c2c1CN(C#N)C2"
10 to 30 µM

For "O=C1c2ccccc2-c2nn3c(Cc4ccccc4)nnc3nc21" , write its IC50.
0.425 µM

Give recorded IC50. "CC1(C)C[C@H](N2CCCc3cc(Cl)cc(-c4ccnc5cc(CN6C(=O)CCC6=O)sc45)c32)CN1"
< 0.01 µM

Using known records, supply IC50 for "CC(=O)Nc1cccc2c(=O)n(CC3(O)CCN(C(=O)C[C@@H](C)c4ccccc4)CC3)cnc12"
1 to 10 µM

Tell me measured IC50 for C=CCON=C1c2ccccc2-c2nn3c(CCCC)nnc3nc21 (mixture of isomers) please.
5.35 µM

Provide only the value of recorded IC50 for "Cc1cc(Cl)cc(-c2ncnc3cc(CN4C(=O)CN(CCO)C4=O)sc23)c1C[C@@H]1CNCC(C)(C)O1"
< 0.01 µM

Fill in IC50 for record Cc1cc(Cl)cc(-c2ncnc3cc(Cn4c(=O)ccn(C5CC5)c4=O)sc23)c1CC1CNCCO1 (stereo not drawn)
< 0.01 µM

Please list IC50 recorded for the compound "Cn1nc2nc3c(nc2n1)-c1ccccc1C3=O"
51 µM

---

Below are IC50 values for Ubiquitin carboxyl-terminal hydrolase 7 (Homo sapiens) collected from several publications.

Answered examples (2):
compound="O=C(C1Cc2cc(Cl)cc(-c3ccnc4[nH]ccc34)c2O1)N1CCN[C@H](CO)C1 (some centres unmarked)" data_value="1 to 10 µM"
compound="CCC1CCC(=O)N1Cc1cc2ncnc(-c3cc(Cl)cc(C)c3C[C@@H]3CNCC(C)(C)O3)c2s1 (some centres unmarked)" data_value="0.01 to 0.1 µM"

# return IC50 for "O=C1CCC(=O)N1Cc1cc2nccc(-c3cc(Cl)cc4c3N(C3CN(C5CCC5)C3)CCC4)c2s1" , test system: Ubiquitin carboxyl-terminal hydrolase 7 (Homo sapiens)
0.01 to 0.1 µM

State recorded IC50 with Ubiquitin carboxyl-terminal hydrolase 7 (Homo sapiens), entry "N#CN1Cc2[nH]nc(-c3ccccc3F)c2C1" , no comment.
< 10 µM

Under Ubiquitin carboxyl-terminal hydrolase 7 (Homo sapiens): report IC50 of "CCc1nnc2nc3c(nn12)C(=O)c1cc(OC)c(OC)cc1-3" .
13.3 µM

Report IC50 under test system Ubiquitin carboxyl-terminal hydrolase 7 (Homo sapiens) for Cc1cc(Cl)cc(-c2ncnc3cc(CN4C(=O)COC4=O)sc23)c1CC1CNCCO1 (centres unmarked) .
< 0.01 µM

Please respond with reported IC50 (system Ubiquitin carboxyl-terminal hydrolase 7 (Homo sapiens)) for CCC1(CO)Cc2nccc(-c3cc(Cl)cc4c3O[C@@H](C(=O)N3CCNCC3)C4)c2C1 (some centres unmarked) .
1 to 10 µM

Output reported IC50 of the compound Cc1cc(Cl)cc(-c2ncnc3cc(CN4C(=O)C5C(C4=O)C5(C)C)sc23)c1CN1C[C@@H](C)NC[C@@H]1C (some centres unmarked) on Ubiquitin carboxyl-terminal hydrolase 7 (Homo sapiens).
< 0.01 µM

---

// merged dataset of IC50 values, system = Ubiquitin carboxyl-terminal hydrolase 7 (Homo sapiens, UniProt Q93009), multiple refs

Would you please look over these solved cases?
compound="O=c1ccn(CC(F)F)c(=O)n1Cc1cc2nccc(-c3cc(C(F)(F)F)cc4c3N([C@@H]3CCNC3)CCC4)c2s1 (single isomer, unassigned)" data_value="10 to 100 nM"
compound="CC(NC(=O)c1cccc(-n2ncc3c2CN(C#N)C3)c1)c1ccccc1 (stereo not shown)" data_value="10000 to 30000 nM"
compound="CCCC1(CO)Cc2nccc(-c3cc(Cl)cc4c3O[C@@H](C(=O)N3CCNCC3)C4)c2C1 (stereo partly shown)" data_value="1000 to 10000 nM"
compound=CCC(=O)NCc1cc2nccc(-c3cc(Cl)cc4c3O[C@@H](c3onc5c3CNCC5)C4)c2s1 data_value="< 1000 nM"

Check Ubiquitin carboxyl-terminal hydrolase 7 (Homo sapiens, UniProt Q93009) data and give IC50 for "O=c1ccn(C2CC2)c(=O)n1Cc1cc2nccc(-c3cc(Cl)cc4c3N([C@H]3CCNC3)CCC4)c2s1" .
< 10 nM

Give Ubiquitin carboxyl-terminal hydrolase 7 (Homo sapiens, UniProt Q93009) IC50 for the following compound: CCC(O)c1cc2ncnc(-c3cc(Cl)cc4c3O[C@@H](c3c5c(nn3C)CCC(N(C)C)C5)C4)c2s1 (stereo partly shown)
1000 to 10000 nM

Output reported IC50 of the compound Cn1cc(Cc2cc3nccc(-c4cc(Cl)cc5c4N([C@H]4CCNC4)CCC5)c3s2)nn1 (single isomer, unassigned) on Ubiquitin carboxyl-terminal hydrolase 7 (Homo sapiens, UniProt Q93009).
10 to 100 nM

---

Literature roundup of Ubiquitin carboxyl-terminal hydrolase 7 (Homo sapiens) data, read-out IC50.

Below: 3 compounds and their reported IC50.
compound=CC(C)Cc1nnc2nc3c(nn12)C(=O)c1ccccc1-3 assay_system="Ubiquitin carboxyl-terminal hydrolase 7 (Homo sapiens)" data_value="> 100000 nM"
compound=C[C@H](c1ccccc1)N(C)C(=O)N1CCC(O)(Cn2cnc3cc(Cl)ccc3c2=O)CC1 assay_system="Ubiquitin carboxyl-terminal hydrolase 7 (Homo sapiens)" data_value="> 10000 nM"
compound=O=C(CCc1ccncc1)N1CCC(O)(Cn2cnc3cc(Cl)ccc3c2=O)CC1 assay_system="Ubiquitin carboxyl-terminal hydrolase 7 (Homo sapiens)" data_value="> 10000 nM"

Would you please give the reported IC50 of "Cc1cc(Cl)cc(-c2ncnc3cc(CN4C(=O)CN(CC(=O)O)C4=O)sc23)c1C[C@@H]1CNCCO1" with Ubiquitin carboxyl-terminal hydrolase 7 (Homo sapiens)?
10 to 100 nM

Fill in IC50 for O=C1CCC(=O)N1Cc1cc2nccc(-c3cc(C(F)(F)F)cc4c3N([C@@H]3CCNC3)CCC4)c2s1 (single isomer, unassigned) tested with Ubiquitin carboxyl-terminal hydrolase 7 (Homo sapiens).
10 to 100 nM

# lookup: Ubiquitin carboxyl-terminal hydrolase 7 (Homo sapiens) IC50, key = Cc1cc(Cl)cc(-c2ncnc3cc(CN4C(=O)CCC4=O)sc23)c1CC1CNCC(C)(C)O1 (stereo not shown)
< 10 nM

Recall the reported IC50 of "Cc1cc(Cl)cc(-c2ccnc3cc(CN4C(=O)CCC4=O)sc23)c1CN1[C@H](C)CNC[C@H]1C" when tested on Ubiquitin carboxyl-terminal hydrolase 7 (Homo sapiens).
10 to 100 nM

---

pIC50: −log10 of the molar value.
Literature pIC50 values, system: Ubiquitin carboxyl-terminal hydrolase 7 (Homo sapiens, UniProt Q93009).

Examples with answers:
compound="Cc1cc(Cl)cc(-c2ncnc3cc(CN4C(=O)C5CC5C4=O)sc23)c1CN1[C@@H](C)CN(C(=O)C(F)(F)F)C[C@@H]1C (stereo partly shown)" measured_metric=pIC50 data_value="> 8.00"
compound=Cn1ncc2cc(-c3n[nH]c4c3CN(C#N)C4)ccc21 measured_metric=pIC50 data_value="> 5.00"
compound=Cn1ccc(=O)n(Cc2cc3nccc(-c4cc(C#N)cc5c4N([C@H]4CCNC4)CCC5)c3s2)c1=O measured_metric=pIC50 data_value="> 8.00"
compound=CC1(CN2CC(=O)N(Cc3cc4nccc(-c5cc(Cl)cc6c5N(C5CNC5)CCC6)c4s3)C(=O)C2)CC1 measured_metric=pIC50 data_value="7.00 to 8.00"
compound=Cc1cc(Cl)cc(-c2ncnc3cc(CN4C(=O)CCN(CC(F)F)C4=O)sc23)c1CN1[C@@H](C)CNC[C@@H]1C measured_metric=pIC50 data_value="> 8.00"

Recall the reported pIC50 of Cc1cc(Cl)cc(-c2ncnc3cc(CN4C(=O)CN(CC(F)(F)F)C4=O)sc23)c1CC1CNCCO1 (stereo not shown) on Ubiquitin carboxyl-terminal hydrolase 7 (Homo sapiens, UniProt Q93009) and write it down.
> 8.00

Write down measured pIC50 (Ubiquitin carboxyl-terminal hydrolase 7 (Homo sapiens, UniProt Q93009)) for this compound. "COCc1cc2ncnc(-c3cc(Cl)cc(C)c3C[C@@H]3CNCC(C)(C)O3)c2s1"
< 7.00
